Documented Activity across a set of molecules
# TEST_NAME: Number of Swiss mice (Mus musculus) alive in a batch of 5 infected with multidrug-resistant Plasmodium yoelii, on day 28 after intramuscular administration of 96 mg/kg/day dose
# Format: functional
MEASURED_QUANTITY: Activity

In [3]: df
Out[3]:
                                    molecule  measured_quantity  endpoint_result
 0  C=C(c1ccccc1)C1COC2(CCC(OC(=O)CCC(=O)O)CC2)OO1 (configuration not stated)           Activity                0
 1  C=C(c1ccccc1)C1COC2(CCC(O)(c3ccccc3)CC2)OO1 (configuration not stated)           Activity                0
 2  C=C(c1ccccc1)C1COC2(CCC(O)CC2)OO1 (configuration not stated)           Activity                0
 3  C=C(c1ccc(-c2ccccc2)cc1)C1COC2(CCC(=C(C)C(=O)OCC)CC2)OO1 (configuration not stated)           Activity                0
 4  C=C(c1ccccc1)C1COC2(CCC(C)(O)CC2)OO1 (configuration not stated)           Activity                2
 5  C=C(c1ccccc1)C1COC2(CCC(O)(CC(=O)OCC)CC2)OO1 (stereo in doubt; form 1)           Activity                0
 6  C=C(c1ccc(-c2ccccc2)cc1)C1COC2(CCC(OC(=O)CCC(=O)O)CC2)OO1 (configuration not stated)           Activity                0
 7  C=C(c1ccccc1)C1COC2(CCC(=C(C)C(=O)OCC)CC2)OO1 (configuration not stated)           Activity                0
 8  C=C(c1ccccc1)C1COC2(CCC(=CC(=O)OCC)CC2)OO1 (configuration not stated)           Activity                2
 9  C=C(c1ccc(-c2ccccc2)cc1)C1COC2(CCC(=CC(=O)OCC)CC2)OO1 (configuration not stated)           Activity                0
10  C=C(c1ccc(-c2ccccc2)cc1)C1COC2(CCC(O)CC2)OO1 (configuration not stated)           Activity                2
11  C=C(c1ccc(-c2ccccc2)cc1)C1COC2(CCC(O)(CC(=O)OCC)CC2)OO1 (stereo in doubt; form 1)           Activity                0

* * *

# System: Rattus norvegicus
# TEST_NAME: Number of Swiss mice (Mus musculus) alive in a batch of 5 infected with multidrug-resistant Plasmodium yoelii, on day 28 after peroral administration of 96 mg/kg/day dose
# Assay type: functional
# ASSAY_CONTEXT: route oral
Documented Activity across a set of compounds
MEASURED_QUANTITY: Activity

                                   compound  measured_quantity  endpoint_result
0  C=C(c1ccccc1)C1COC2(CCC(O)(CC(=O)OCC)CC2)OO1 (stereo in doubt; form 1)           Activity                0
1  C=C(c1ccc(-c2ccccc2)cc1)C1COC2(CCC(=CC(=O)OCC)CC2)OO1 (centres undefined)           Activity                5
2  C=C(c1ccc(-c2ccccc2)cc1)C1COC2(CCC(OC(=O)CCC(=O)O)CC2)OO1 (centres undefined)           Activity                0
3  C=C(c1ccc(-c2ccccc2)cc1)C1COC2(CCC(=C(C)C(=O)OCC)CC2)OO1 (centres undefined)           Activity                2
4  C=C(c1ccccc1)C1COC2(CCC(=C(C)C(=O)OCC)CC2)OO1 (centres undefined)           Activity                0
5  C=C(c1ccc(-c2ccccc2)cc1)C1COC2(CCC(O)CC2)OO1 (centres undefined)           Activity                0
6  C=C(c1ccc(-c2ccccc2)cc1)C1COC2(CCC(O)(CC(=O)OCC)CC2)OO1 (stereo in doubt; form 1)           Activity                0
7  C=C(c1ccccc1)C1COC2(CCC(C)(O)CC2)OO1 (centres undefined)           Activity                0
8  C=C(c1ccccc1)C1COC2(CCC(O)CC2)OO1 (centres undefined)           Activity                0
